system: lambsquarters (Chenopodium album); experiment: Test C greenhouse herbicide test, pre- and postemergence; format: in vivo; conditions: Postemergence, 31 g ai/ha; 0 to 100 scale (0 no effect, 100 complete control)
Field: Lambsquarters plant response rating. Provide a value for each of the molecules that follow.
Numbers only.

Incoming: Please report the measured Lambsquarters plant response rating for Cc1ccc2ccccc2c1-c1c(O)c(C)nn(C)c1=O
Outgoing: 90

Parameters: items (list). Returns: Lambsquarters plant response rating for each item.
1. CCOC(=O)Oc1c(C)nn(C)c(=O)c1-c1c(CC)ccc2ccccc12
2. Cc1ccc(-c2c(O)c(Br)nn(C)c2=O)c2ccccc12
3. CC(=O)Oc1c(C)nn(C)c(=O)c1-c1c(C)oc2c(C)cc(C)cc12
4. Cc1ccc2sc(C)c(-c3c(O)c(C)nn(C)c3=O)c2c1

Outgoing:
90
55
10
85

----------
system: Russian thistle (Salsola kali); assay: Test D controlled growth environment herbicide test, pre- and postemergence; format: in vivo; settings: postemergence, 62 g ai/ha; scale 0 to 100, 0 no effect, 100 complete control
metric name: Plant response rating, Russian Thistle
Numbers only.

Incoming: Identify measured Plant response rating, Russian Thistle associated with Cc1ccc(-c2c(O)c(Br)nn(C)c2=O)c2ccccc12
Outgoing: 35

For every listed record, write down its Plant response rating, Russian Thistle.
1. CCOC(=O)Oc1c(C)nn(C)c(=O)c1-c1c(C)sc2c(C)cc(C)cc12
2. Cc1nn(C)c(=O)c(-c2c(C)sc3ccc(Cl)cc23)c1O
3. COC(=O)Oc1c(C)nn(C)c(=O)c1-c1c(C)sc2c(C)cc(C)cc12

Outgoing:
[80, 60, 85]

----------
test system: kochia (Kochia scoparia); assay: Test D controlled growth environment herbicide test, pre- and postemergence; assay type: in vivo; conditions: Postemergence, 250 g ai/ha; scale 0 to 100 (0 no effect, 100 complete control)
metric name: Plant response rating, Kochia
One number for each entry.

Incoming: Specify Plant response rating, Kochia for CC(=O)Oc1c(C)nn(C)c(=O)c1-c1c(C)sc2ccc(C)cc12 [Compound 25] and stop.
Outgoing: 100

Incoming: Quote Plant response rating, Kochia reported for COc1nn(C)c(=O)c(-c2c(C)ccc3ccccc23)c1O [Compound 54] please.
Outgoing: 100

Incoming: # return recorded Plant response rating, Kochia for entry CCOC(=O)Oc1c(C)nn(C)c(=O)c1-c1c(C)sc2ccc(C)cc12 [Compound 82]
Outgoing: 100

Others:
Incoming: Hello, please tell me recorded Plant response rating, Kochia for this one: CC(=O)Oc1c(C)nn(C)c(=O)c1-c1c(C)sc2c(C)cc(C)cc12 [Compound 27]
Outgoing: 75

----------
tested on: blackgrass (Alopecurus myosuroides); assay: Test C greenhouse herbicide test, pre- and postemergence; type: in vivo; conditions: Preemergence, 250 g ai/ha; scale 0 to 100 (0 no effect, 100 complete control)
# if measured Blackgrass plant response rating < 90: label 1  # else: label 0

Observe how each entry below is paired with its result.
Incoming: Does COc1nn(C)c(=O)c(-c2c(C)ccc3ccccc23)c1O have Blackgrass plant response rating strictly under 90?
Outgoing: label 1

Incoming: In plain terms, does CC(=O)Oc1c(C)nn(C)c(=O)c1-c1c(C)cc(C)c2ccccc12 come in under 90 for Blackgrass plant response rating?
Outgoing: label 0

Incoming: Here's an entry: Cc1sc2ccc(Cl)cc2c1-c1c(OS(C)(=O)=O)c(Cl)nn(C)c1=O . Is its Blackgrass plant response rating below 90?
Outgoing: label 1

Continue with the next compound.
Incoming: Is Blackgrass plant response rating of CC(=O)Oc1c(C)nn(C)c(=O)c1-c1ccc(F)c2ccccc12 strictly below 90?
Outgoing: label 1

----------
tested on: wheat, winter (winter wheat, Triticum aestivum); experiment: Test D controlled growth environment herbicide test, pre- and postemergence; type: in vivo; conditions: Preemergence, 62 g ai/ha; scale 0 to 100 (0 no effect, 100 complete control)
Please go through the items and note down their Plant response rating, Wheat, Winter.
Give bare numbers.

Give Plant response rating, Wheat, Winter for each of the items listed below.
1. COc1nn(C)c(=O)c(-c2c(C)ccc3ccccc23)c1OC(=O)OC(C)C [Compound 36]
2. Cc1cc(C)c2sc(C)c(-c3c(OC(=O)OC(C)C)c(C)nn(C)c3=O)c2c1 [Compound 67]
3. CCC(=O)Oc1c(C)nn(C)c(=O)c1-c1c(C)sc2ccc(C)cc12 [Compound 42]
4. CCC(=O)Oc1c(C)nn(C)c(=O)c1-c1c(C)sc2c(C)cc(C)cc12 [Compound 28]
5. CCOC(=O)Oc1c(C)nn(C)c(=O)c1-c1c(C)ccc2ccccc12 [Compound 73]

Outgoing:
1: 0; 2: 0; 3: 0; 4: 0; 5: 40

----------
tested on: nutsedge, yellow (yellow nutsedge, Cyperus esculentus); experiment: Test C greenhouse herbicide test, pre- and postemergence; format: in vivo; conditions: Preemergence, 125 g ai/ha; scale 0 to 100, 0 is no effect, 100 is complete control
metric name: Plant response rating, Nutsedge, Yellow
One number for each entry.

Sample answers from the record:
Incoming: Give the value of Plant response rating, Nutsedge, Yellow reported for the following: CCC(=O)Oc1c(C)nn(C)c(=O)c1-c1ccc(Br)c2ccccc12 [Compound 133]
Outgoing: 70

Incoming: Return value of Plant response rating, Nutsedge, Yellow for input COc1nn(C)c(=O)c(-c2c(C)ccc3ccccc23)c1OC(=O)OC(C)C [Compound 36] , no commentary.
Outgoing: 20

Incoming: Specify reported Plant response rating, Nutsedge, Yellow for the compound shown: C#CCOC(=O)Oc1c(C)nn(C)c(=O)c1-c1c(C)sc2ccc(C)cc12 [Compound 87]
Outgoing: 85

Incoming: Please report Plant response rating, Nutsedge, Yellow for the following compound: Cc1cc(C)c2sc(C)c(-c3c(OC(=O)OCCCl)c(C)nn(C)c3=O)c2c1 [Compound 85]
Outgoing: 75

Shifting focus to the compound that follows.
Incoming: Return reported Plant response rating, Nutsedge, Yellow. Input compound: Cc1cc(C)c2ccccc2c1-c1c(OS(C)(=O)=O)c(C)nn(C)c1=O [Compound 154]
Outgoing: 70

----------
test system: velvetleaf (Abutilon theophrasti); assay: Test C greenhouse herbicide test, pre- and postemergence; format: in vivo; details: Postemergence, 125 g ai/ha; scale 0 to 100, 0 is no effect, 100 is complete control
hey, just use class 1 if measured Plant response rating, Velvetleaf is less than 80, otherwise class 0

The examples below pair each entry with its known result.
Incoming: Report whether reported Plant response rating, Velvetleaf is lower than 80 (strictly) for Cc1nn(C)c(=O)c(-c2ccc(F)c3ccccc23)c1OC(=O)CC(F)(F)F
Outgoing: class 0

Incoming: Check if Plant response rating, Velvetleaf falls below 80 for Cc1nn(C)c(=O)c(-c2c(C)sc3ccccc23)c1O .
Outgoing: class 1

Incoming: Record CCC(=O)Oc1c(Cl)nn(C)c(=O)c1-c1c(C)sc2ccc(Cl)cc12 : is its Plant response rating, Velvetleaf strictly below 80?
Outgoing: class 0

***
Incoming: Given the entry Cc1ccc2ccccc2c1-c1c(O)c(Cl)nn(C)c1=O , would its reported Plant response rating, Velvetleaf be below 80?
Outgoing: class 0

Incoming: Hello, I'm reviewing records and need to know if Plant response rating, Velvetleaf of CCOC(=O)Oc1c(C)nn(C)c(=O)c1-c1c(C)sc2c(C)cc(C)cc12 is below 80. Could you check?
Outgoing: class 0

Incoming: Decide: Plant response rating, Velvetleaf of Cc1cc(C)c2sc(C)c(-c3c(OC(=O)OCCCl)c(C)nn(C)c3=O)c2c1 strictly below 80?
Outgoing: class 0

Incoming: Item Cc1ccc2ccc(C)c(-c3c(O)c(C)nn(C)c3=O)c2c1 : Plant response rating, Velvetleaf beneath 80, strictly?
Outgoing: class 0

Incoming: Here's an entry: COc1nn(C)c(=O)c(-c2c(C)sc3ccccc23)c1O . Is its Plant response rating, Velvetleaf below 80?
Outgoing: class 1

----------
system: radish, wild (wild radish, Raphanus raphanistrum); experiment: Test D controlled growth environment herbicide test, pre- and postemergence; format: in vivo; conditions: Preemergence, 125 g ai/ha; scale 0 to 100 (0 no effect, 100 complete control)
Assignment: determine reported Plant response rating, Radish, Wild for the given compounds.
Answers are plain numbers.

Give Plant response rating, Radish, Wild for each listed item.
1. CCOC(=O)Oc1c(C)nn(C)c(=O)c1-c1c(C)ccc2ccccc12 [Compound 73]
2. CC(=O)Oc1c(C)nn(C)c(=O)c1-c1c(C)sc2c(C)cc(C)cc12 [Compound 27]
3. C#CCOC(=O)Oc1c(C)nn(C)c(=O)c1-c1c(C)sc2ccc(C)cc12 [Compound 87]
4. CC(=O)Oc1c(Br)nn(C)c(=O)c1-c1c(C)ccc2ccccc12 [Compound 129]

Outgoing:
1: 100; 2: 60; 3: 75; 4: 100

Incoming: State, in one line, measured Plant response rating, Radish, Wild of COc1nn(C)c(=O)c(-c2c(C)ccc3ccccc23)c1OC(=O)OC(C)C [Compound 36]
Outgoing: 50
